Data credit: ChEMBL document CHEMBL1136599

As a worked illustration, we turn to pIC50 data collected for Coagulation factor X (Homo sapiens).
Please report pIC50 as the negative decimal logarithm of the molar concentration, giving only the number.

*Q* Param item = `CCOC(=O)C[C@@H]1C(=O)N(CC(=O)N[C@@H](CCCN=C(N)N)C(=O)c2nccs2)CCN1S(=O)(=O)Cc1ccccc1` ; retrieve measured pIC50.
*A* 8.15

*Q* Param item = `N=C(N)NCCC[C@H](NC(=O)CN1CCN(S(=O)(=O)Cc2ccccc2)[C@H](CC(=O)N2CCCCC2)C1=O)C(=O)c1nccs1` ; retrieve measured pIC50.
*A* 7.43

*Q* Param item = N=C(N)NCCCC(NC(=O)CN1CCN(S(=O)(=O)Cc2ccccc2)CC1=O)C(=O)c1nccs1 (configuration not stated) ; retrieve measured pIC50.
*A* 8.40

*Q* Param item = `N=C(N)NCCC[C@H](NC(=O)CN1CCN(S(=O)(=O)Cc2ccccc2)[C@H](Cc2ccccc2)C1=O)C(=O)c1nccs1` ; retrieve measured pIC50.
*A* 7.23

*Q* Param item = `N=C(N)NCCC[C@H](NC(=O)CN1CCN(S(=O)(=O)Cc2ccccc2)[C@H](CC(=O)O)C1=O)C(=O)c1nccs1` ; retrieve measured pIC50.
*A* 7.51

*Q* Param item = `CCOC(=O)C[C@H]1C(=O)N(CC(=O)N[C@@H](CCCN=C(N)N)C(=O)c2nccs2)CCN1S(=O)(=O)Cc1ccccc1` ; retrieve measured pIC50.
*A* 7.49

*Q* Param item = `N=C(N)NCCC[C@H](NC(=O)CN1CCN(S(=O)(=O)Cc2ccccc2)[C@H](CCC(=O)O)C1=O)C(=O)c1nccs1` ; retrieve measured pIC50.
*A* 8.40

====

As a worked illustration, we turn to pIC50 data collected for Coagulation factor X (Homo sapiens).
Please report pIC50 as the negative decimal logarithm of the molar concentration, giving only the number.

*Q* Param item = `CS(=O)(=O)N1CCN(CC(=O)N[C@@H](CCCN=C(N)N)C(=O)c2nccs2)C(=O)[C@H]1Cc1ccccc1` ; retrieve measured pIC50.
*A* 6.84

*Q* Param item = `N=C(N)NCCC[C@H](NC(=O)CN1CCN(S(=O)(=O)Cc2ccccc2)[C@H](CCC(=O)N2CCCCC2)C1=O)C(=O)c1nccs1` ; retrieve measured pIC50.
*A* 8.40

*Q* Param item = `N=C(N)NCCC[C@H](NC(=O)CN1C=CN[C@@H](CCCNC(=N)N)C1=O)C(=O)c1nccs1` ; retrieve measured pIC50.
*A* 6.51

*Q* Param item = `N=C(N)NCCC[C@H](NC(=O)CN1CCN(S(=O)(=O)Cc2ccccc2)[C@@H](Cc2ccccc2)C1=O)C(=O)c1nccs1` ; retrieve measured pIC50.
*A* 9.05

*Q* Param item = `N=C(N)NCCC[C@H](NC(=O)CN1CCN(S(=O)(=O)Cc2ccccc2)[C@@H](CC(=O)N2CCCCC2)C1=O)C(=O)c1nccs1` ; retrieve measured pIC50.
*A* 6.81

*Q* Param item = `COC(=O)C[C@H]1C(=O)N(CC(=O)N[C@@H](CCCNC(=N)N)C(=O)c2nccs2)CCN1S(=O)(=O)Cc1ccccc1` ; retrieve measured pIC50.
*A* 7.07

*Q* Param item = `N=C(N)NCCC[C@H](NC(=O)CN1CC(=O)N[C@H](CCCNC(=N)N)C1=O)C(=O)c1nccs1` ; retrieve measured pIC50.
*A* 7.68
